Test system: HCT-116
Assay: Antiproliferative activity against human HCT-116 cells assessed as inhibition of cell proliferation incubated for 72 hrs by MTT assay
Assay type: functional, cell-based
Conditions: HCT-116, 72 h
pIC50: −log10 of the molar value.
MEASURED_QUANTITY: pIC50

Below, 5 compounds whose answers are already recorded.
COc1cccc(Cn2c(=O)oc3cc(-c4ccc(N)nc4)ccc32)c1 | 5.13
COc1cccc(Cn2c(=O)oc3cc(-c4cnc5[nH]ccc5c4)ccc32)c1 | 5.30
Nc1ccc(-c2ccc3c(c2)oc(=O)n3Cc2ccc(F)cc2)cn1 | 4.78
O=c1oc2cc(-c3cnc4[nH]ccc4c3)ccc2n1Cc1cccc(F)c1 | 5.23
O=c1oc2cc(-c3cnc4[nH]ccc4c3)ccc2n1Cc1cccc(OC(F)(F)F)c1 | 5.15

(I) COc1cc(-c2ccc3c(c2)oc(=O)n3Cc2ccc(F)cc2)cnc1N
(II) O[C@H]1CC[C@@H](Oc2cccc3cnc(Nc4ccc5nc[nH]c5c4)nc23)CC1
Exercise: Consider I and II . Which of these has its pIC50 at a higher number? Answer format: the label of the selected item.
Solution: II
(II: 6.39, I: 4.44)

Just for reference, ChEMBL document CHEMBL5143674 is where these values come from.
